From: ChEMBL document CHEMBL3751698

Target: Adenosine receptor A1 (Homo sapiens)
Sequence (P30542 whole entry): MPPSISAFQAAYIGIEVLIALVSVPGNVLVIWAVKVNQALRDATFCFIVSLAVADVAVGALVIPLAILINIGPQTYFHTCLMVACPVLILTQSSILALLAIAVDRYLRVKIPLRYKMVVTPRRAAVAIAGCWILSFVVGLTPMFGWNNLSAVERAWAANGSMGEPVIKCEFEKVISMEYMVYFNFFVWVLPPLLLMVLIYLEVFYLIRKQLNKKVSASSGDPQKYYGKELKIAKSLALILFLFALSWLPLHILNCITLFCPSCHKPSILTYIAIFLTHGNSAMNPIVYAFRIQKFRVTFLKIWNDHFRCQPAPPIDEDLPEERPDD
Test: Displacement of [3H]CCPA from human A1 adenosine receptor expressed in CHO cell membranes
Conditions: read-out: Ki
Mark Fulfilled only for Ki values smaller than 0.9 µM; exact matches and larger values are Not fulfilled.

structure_string: CC(C)Nc1nc(NC(=O)Cc2ccccc2)n2nc(-c3ccco3)nc2n1
category: Not fulfilled
--
structure_string: O=C(Nc1nc(NC2CCCCC2)nc2nc(-c3ccco3)nn12)c1ccccc1
category: Not fulfilled
--
structure_string: O=C(Cc1ccccc1)Nc1nc(NC2CCCCC2)nc2nc(-c3ccco3)nn12
category: Not fulfilled
--
structure_string: CNc1nc(NC2CCCCC2)n2nc(-c3ccco3)nc2n1
category: Fulfilled
--
structure_string: CNc1nc(NCc2ccccc2)n2nc(-c3ccco3)nc2n1
category: Not fulfilled
--
structure_string: O=C(Nc1ccccc1)Nc1nc(NCc2ccccc2)nc2nc(-c3ccco3)nn12
category: Fulfilled
--
structure_string: Fc1ccc(CNc2nc(NC3CCCCC3)nc3nc(-c4ccco4)nn23)cc1
category: Not fulfilled
--
structure_string: CC(C)Nc1nc(N)n2nc(-c3ccco3)nc2n1
category: Not fulfilled
--
structure_string: Fc1ccc(CNc2nc(Oc3ccccc3)nc3nc(-c4ccco4)nn23)cc1
category: Not fulfilled
--
structure_string: CC(C)Nc1nc(NC(=O)Nc2ccccc2)n2nc(-c3ccco3)nc2n1
category: Not fulfilled
--
structure_string: O=C(Nc1ccccc1)Nc1nc(NC2CCCCC2)nc2nc(-c3ccco3)nn12
category: Not fulfilled
--
structure_string: CC(C)Nc1nc(NC(=O)c2ccccc2)n2nc(-c3ccco3)nc2n1
category: Not fulfilled
--
structure_string: CNc1nc(NCc2ccc(F)cc2)n2nc(-c3ccco3)nc2n1
category: Not fulfilled
--
structure_string: Nc1nc(NCc2ccccc2)nc2nc(-c3ccco3)nn12
category: Fulfilled
--
structure_string: O=C(Nc1nc(NCc2ccccc2)nc2nc(-c3ccco3)nn12)c1ccccc1
category: Not fulfilled
--
structure_string: CNc1nc(NC(=O)Cc2ccccc2)n2nc(-c3ccco3)nc2n1
category: Not fulfilled
--
structure_string: c1ccc(CNc2nc(NC3CCCCC3)n3nc(-c4ccco4)nc3n2)cc1
category: Fulfilled
--
structure_string: Fc1ccc(CNc2nc(NCc3ccc(F)cc3)n3nc(-c4ccco4)nc3n2)cc1
category: Not fulfilled
--
structure_string: c1coc(-c2nc3nc(NC4CCCCC4)nc(NC4CCCCC4)n3n2)c1
category: Fulfilled
--
structure_string: Nc1nc(NC2CCCCC2)nc2nc(-c3ccco3)nn12
category: Fulfilled
--
structure_string: CC(C)Nc1nc(NCc2ccccc2)n2nc(-c3ccco3)nc2n1
category: Not fulfilled
--
structure_string: CC(C)Nc1nc(NC2CCCCC2)n2nc(-c3ccco3)nc2n1
category: Fulfilled
--
structure_string: c1ccc(CNc2nc(NCc3ccccc3)n3nc(-c4ccco4)nc3n2)cc1
category: Fulfilled
--
structure_string: O=C(Cc1ccccc1)Nc1nc(NCc2ccccc2)nc2nc(-c3ccco3)nn12
category: Fulfilled
